Hey, just so you know, these numbers are from paper PMC9911399.

TARGET_ENTITY: T1, RBFOX1 RRM RbFoxmut (Fox-RRM*) (Homo sapiens, UniProt Q9NWB1 109-208, R118D;E147R;N151S;E152T)
T1 sequence: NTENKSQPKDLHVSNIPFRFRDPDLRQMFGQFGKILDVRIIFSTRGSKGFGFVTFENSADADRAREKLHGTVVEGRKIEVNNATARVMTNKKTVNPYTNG
PROCEDURE_DETAILS: EMSA; HiTS-Eq, 1 nM pool, 10 min; buffer printed only for the single-RNA assays: 10 mM Tris pH 7.5, 150 mM NaCl, 3.4 mM EDTA, 0.001% NP-40, 30 C
CONDITIONS_USED: tags: His6 N-terminal (pET28a); label: 5' 32P
Whole data set: some 16,000 sequences, median “ka relative to ugcaugu” near 0.096, cut for the highest 2% near 0.35. For the sample, the highest values were picked, then their nearest neighbours and some sequences at random.
MEASUREMENT_TYPE: binding signal

>>> value("CAGGGUU (DNA:RNA) RNA: GGGAGACCGGAAUUCAGAUUGUCCCAGGGUUUUAAAUCCCGUCGUAGCCACCA DNA 1: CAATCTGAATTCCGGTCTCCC DNA 2: TGGTGGCTACGACGGGATT")
"0.106 KA relative to UGCAUGU"
>>> value("AAAUGUA (DNA:RNA) RNA: GGGAGACCGGAAUUCAGAUUGUCCAAAUGUAUUAAAUCCCGUCGUAGCCACCA DNA 1: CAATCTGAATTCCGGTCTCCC DNA 2: TGGTGGCTACGACGGGATT")
"0.166 KA relative to UGCAUGU"
>>> value("UCACCUC (DNA:RNA) RNA: GGGAGACCGGAAUUCAGAUUGUCCUCACCUCUUAAAUCCCGUCGUAGCCACCA DNA 1: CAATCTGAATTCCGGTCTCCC DNA 2: TGGTGGCTACGACGGGATT")
"0.0699 KA relative to UGCAUGU"
>>> value("AAGGAAC (DNA:RNA) RNA: GGGAGACCGGAAUUCAGAUUGUCCAAGGAACUUAAAUCCCGUCGUAGCCACCA DNA 1: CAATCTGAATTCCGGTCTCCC DNA 2: TGGTGGCTACGACGGGATT")
"0.057 KA relative to UGCAUGU"
>>> value("GUUCGUA (DNA:RNA) RNA: GGGAGACCGGAAUUCAGAUUGUCCGUUCGUAUUAAAUCCCGUCGUAGCCACCA DNA 1: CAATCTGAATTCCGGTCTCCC DNA 2: TGGTGGCTACGACGGGATT")
"0.155 KA relative to UGCAUGU"
>>> value("GUAAAUG (DNA:RNA) RNA: GGGAGACCGGAAUUCAGAUUGUCCGUAAAUGUUAAAUCCCGUCGUAGCCACCA DNA 1: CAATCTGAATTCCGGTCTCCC DNA 2: TGGTGGCTACGACGGGATT")
"0.125 KA relative to UGCAUGU"
>>> value("GAUCCGG (DNA:RNA) RNA: GGGAGACCGGAAUUCAGAUUGUCCGAUCCGGUUAAAUCCCGUCGUAGCCACCA DNA 1: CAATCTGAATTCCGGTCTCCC DNA 2: TGGTGGCTACGACGGGATT")
"0.06 KA relative to UGCAUGU"
>>> value("CUCGGGU (DNA:RNA) RNA: GGGAGACCGGAAUUCAGAUUGUCCCUCGGGUUUAAAUCCCGUCGUAGCCACCA DNA 1: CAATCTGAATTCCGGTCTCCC DNA 2: TGGTGGCTACGACGGGATT")
"0.0903 KA relative to UGCAUGU"
>>> value("UACCUCG (DNA:RNA) RNA: GGGAGACCGGAAUUCAGAUUGUCCUACCUCGUUAAAUCCCGUCGUAGCCACCA DNA 1: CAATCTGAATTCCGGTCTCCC DNA 2: TGGTGGCTACGACGGGATT")
"0.107 KA relative to UGCAUGU"
